Parameter: melting point. Scope: all listed entries.

{"columns": ["COMPOUND", "READOUT_NAME", "RESULT"],
 "data": [
  ["CC(C)(C)C(=O)Oc1ccc([N+](=O)[O-])cc1", "melting point", "92 to 96 °C"],
  ["CC1(C)OC(C)(C(O)(c2cccc3ccccc23)c2cccc3ccccc23)CCC1C(=O)O (stereo unspecified)", "melting point", "210 to 211 °C"]
]}

Okay, next one:
**Q:** Need melting point, item CC1(C)OC(=O)C(=C2CCCCCN2)C(=O)O1
**A:** 147 to 149 °C

###

READOUT_NAME: melting point (°C)
Hi! Could you send only the number? It should be in °C, unit omitted.

{"columns": ["COMPOUND_STRUCTURE_STRING", "RESULT_UNITS", "melting point"],
 "data": [
  ["C=CCc1ccc(OC(C)=O)c(OC)c1", "°C", 30.5]
]}

**Q:** Need melting point, item N#CC(F)(Cl)Cl
**A:** -110

**Q:** Need melting point, item O=C(O)c1cc([N+](=O)[O-])c(Cl)c([N+](=O)[O-])c1
**A:** 161

**Q:** Need melting point, item CCN(CC)C(=O)SCc1ccc(Cl)cc1
**A:** 3.3
